Data credit: ChEMBL document CHEMBL1136898

subject of test: Orexin/Hypocretin receptor type 1 (Homo sapiens, UniProt O43613)
Sequence (O43613 whole entry): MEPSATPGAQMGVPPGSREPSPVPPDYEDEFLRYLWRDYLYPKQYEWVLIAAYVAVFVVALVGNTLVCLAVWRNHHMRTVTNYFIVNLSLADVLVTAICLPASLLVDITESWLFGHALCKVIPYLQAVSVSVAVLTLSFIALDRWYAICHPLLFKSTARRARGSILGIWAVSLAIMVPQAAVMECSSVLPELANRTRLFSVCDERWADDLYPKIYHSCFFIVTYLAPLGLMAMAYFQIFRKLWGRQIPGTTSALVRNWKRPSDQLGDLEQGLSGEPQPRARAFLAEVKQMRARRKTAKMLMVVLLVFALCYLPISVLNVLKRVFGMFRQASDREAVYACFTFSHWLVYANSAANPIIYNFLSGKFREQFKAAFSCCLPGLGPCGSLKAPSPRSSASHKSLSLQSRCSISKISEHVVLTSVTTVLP
assay metric: pKi
# reply with the number alone; pKi is -log10 of concentration in mol/L

* Cc1ccc(-n2nccn2)c(C(=O)N2CCCN(c3ccc4ccccc4c3)CC2)c1 | 8.70

Problem: What value of pKi has been recorded for this entry: O=C1c2cc(ccc2-n2nccn2)CCCCCCc2ccc3cc(ccc3c2)N2CCCN1CC2
Solution: 7.29

Problem: Report pKi for O=C(C1CCCCC1)N1CCCN(c2ncc3ccccc3n2)CC1 please.
Solution: 5.01
